Data provenance is PubChem BioAssay (NCI).

Tested on: RXF 393 renal
Assay: NCI tumour cell line growth inhibition, 48 h; in the data active = GI50 below about 0.43 µM; inactive = the rest
// classify into active, inactive

Examples with answers:
INSERT INTO results (smiles_representation, discrete_label) VALUES
  ('COc1cc(/C=C2\CN(C(=O)CCN3CCC(=NO)CC3)C/C(=C\c3cc(OC)c(OC)c(OC)c3)C2=O)cc(OC)c1OC', 'active'),
  ('Cc1cc2nc(-c3c(N)ncc(C#N)c3-c3ccc(Cl)cc3)[nH]c2cc1C', 'inactive'),
  ('COc1cc2c(c(OC)c1OC)-c1ccc(O)c(=O)cc1[C@@H](NC(C)=O)CC2', 'inactive'),
  ('CCCCN(CC)c1ncnc2ccc(Br)cc12', 'inactive'),
  ('CC[C@H](Nc1nc(N)nc(C2CC2)c1C#N)c1nc2cccc(NCc3ccc(C(=O)NO)cc3)c2c(=O)n1-c1ccccc1', 'inactive');

State the result this test recorded for "CC(C)(C)n1cc(-c2ccnc(NCCCNS(=O)(=O)c3ccc(Br)cc3)c2)c(-c2cccc(O)c2)n1" .
inactive

Entry to check: "CCOC(=O)c1c2c(n(Cc3ccccc3)c1C)-c1nc(Cc3ccccc3)[nH]c1C(=O)C2=O"
inactive

Let us now turn to "Oc1c(CN2CCCC2)cc(CSCc2ccccc2)c2cccnc12"
inactive

Let us now turn to "COC(=O)c1cc(-c2ccc(OC)cc2)[nH]c1N/N=C/c1c(Cl)cccc1Cl"
active

Let us now turn to "CCOC(=O)Nc1nc2cc(OCC)ccc2s1"
inactive

What would you report for "CCCCCCNC(=O)n1cc(F)c(=O)[nH]c1=O" ?
inactive
